Source of measurements: patent US20220096454A1

# STUDY SYSTEM: TNKS1 (Homo sapiens, UniProt O95271)
# Construct: GST-tagged Tnks-1 (1023-1327 aa, prepared in-house); made in house
# Sequence (O95271 1023-1327): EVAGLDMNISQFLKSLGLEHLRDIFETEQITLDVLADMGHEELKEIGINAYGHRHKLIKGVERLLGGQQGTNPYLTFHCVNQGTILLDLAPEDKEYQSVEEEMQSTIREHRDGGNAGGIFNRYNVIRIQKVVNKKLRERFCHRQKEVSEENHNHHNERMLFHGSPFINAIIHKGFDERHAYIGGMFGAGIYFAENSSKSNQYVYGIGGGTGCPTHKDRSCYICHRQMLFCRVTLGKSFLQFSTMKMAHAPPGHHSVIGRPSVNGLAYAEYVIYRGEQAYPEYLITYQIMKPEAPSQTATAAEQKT
# EXPERIMENT DESCRIPTION: TNKS1 activity ELISA (autoparsylation assay)
# Format: biochemical
# CONDITION INFO: GST-tagged Tnks-1 (1023-1327 aa), 10 μM bio-NAD, 1 hour at 30° C.
# Method: Description of the TNKS1 and TNKS2 ELISA Assay Biochemical activity testing of TNKS 1 and 2: activity ELISA (Autoparsylation assay) For analysis of autoparsylation activity of TNKS 1 and 2 an activity ELISA is performed: In the first step GST tagged TNKS is captured on a Glutathione coated plate. Then the activity assay with biotinylated NAD is performed in the absence/presence of the compounds. […] The amount of biotinylated resp. autoparsylated TNKS is detected with a luminescence substrate for HRP. […]
VALUE KIND: log10(IC50) (log10 of the value in nM)
The base-10 logarithm of IC50, taken with IC50 in nM, is what appears here.

{"columns": ["COMPOUND STRING", "MEASURED"],
 "data": [
  ["COc1ccc(N(C)C(=O)N2CCC(C(=O)c3ccc4c(c3)c(C(=O)O)nn4C)CC2)cc1", 1.63],
  ["CN(C(=O)N1CCC(C(=O)c2ccc3cnn(C)c3c2)CC1)c1ccc(C(=O)O)cc1", 0.12],
  ["CCN(C(=O)N1CCC(C(=O)c2ccc3c(c2)ncn3C)CC1)c1cccc(C(=O)O)c1", 0.52],
  ["CN(C(=O)N1CCC(C(=O)c2ccc3cc(C(=O)O)n(C)c3c2)CC1)c1ccc(F)cc1", 0.54]
]}

Give log10(IC50) for all molecules that follow.
1. CCN(C(=O)N1CCC(C(=O)c2ccc3cc(C(=O)O)n(C)c3c2)CC1)c1ccc(F)cc1
2. CCN(C(=O)N1CCC(C(=O)c2ccc3c(c2)ncn3C)CC1)c1ccc(C(=O)O)cc1
3. CN(C(=O)N1CCC(C(=O)c2ccc3c(cnn3C)c2)CC1)c1ccc(C(=O)O)cc1

Response given:
[-0.17, 0.54, 0.88]

For every item below, please supply its log10(IC50).
1. CN(C(=O)N1CCC(C(=O)c2ccc3cnn(C)c3c2)CC1)c1cccc(C(=O)O)c1
2. CCN(C(=O)N1CCC(C(=O)c2ccc3c(c2)cc(C(=O)O)n3C)CC1)c1ccc(F)cc1
3. COc1ccc(N(C)C(=O)N2CCC(C(=O)c3ccc4cc(C(=O)O)n(C)c4c3)CC2)cc1
4. CCN(C(=O)N1CCC(C(=O)c2ccc3c(c2)c(C(=O)O)nn3C)CC1)c1ccc(OC)cc1

Response given:
[0.34, -0.39, 0.26, 0.99]
